Every entry's value here was drawn from patent US20240400708A1.

- system name: feline FcRn complex (FcRn-α subunit and β-microglobulin) (feline)
- assay method text: SPR (Biacore), FcRn on SA chip, pH 6

{"binder": "feline IgG1a mutant ID No. 330: S428Y, D312P, S434Y, Q311K, L314K (antibody, part only; not given: Variable domains, not shown: another chain or arm of the molecule; small tags and cut ends) constant: ASTTAPSVFPLAPSCGTTSGATVALACLVLGYFPEPVTVSWNSGALTSGVHTFPAVLQASGLYSLSSMVTVPSSRWLSDTFTCNVAHPPSNTKVDKTVRKTDHPPGPKPCDCPKCPPPEMLGGPSIFIFPPKPKDTLSISRTPEVTCLVVDLGPDDSDVQITWFVDNTQVYTAKTSPREEQFNSTYRVVSVLPILHKPWKKGKEFKCKVNSKSLPSPIERTISKAKGQPHEPQVYVLPPAQEELSRNKVSVTCLIKSFHPPDIAVEWEITGQPEPENNYRTTPPQLDSDGTYFVYSKLSVDRSHWQRGNTYTCSVYHEALHYHHTQKSLTQSPGK", "Kd / nM": 0.00906}
{"binder": "feline IgG1a mutant ID No. 375: S252Y, S434R, S254V (antibody, part only; not given: Variable domains, not shown: another chain or arm of the molecule) constant: ASTTAPSVFPLAPSCGTTSGATVALACLVLGYFPEPVTVSWNSGALTSGVHTFPAVLQASGLYSLSSMVTVPSSRWLSDTFTCNVAHPPSNTKVDKTVRKTDHPPGPKPCDCPKCPPPEMLGGPSIFIFPPKPKDTLYIVRTPEVTCLVVDLGPDDSDVQITWFVDNTQVYTAKTSPREEQFNSTYRVVSVLPILHQDWLKGKEFKCKVNSKSLPSPIERTISKAKGQPHEPQVYVLPPAQEELSRNKVSVTCLIKSFHPPDIAVEWEITGQPEPENNYRTTPPQLDSDGTYFVYSKLSVDRSHWQRGNTYTCSVSHEALHRHHTQKSLTQSPGK", "Kd / nM": 0.551}
{"binder": "feline IgG1a mutant ID No. 275: S252R, S434R (antibody, part only; not given: Variable domains, not shown: another chain or arm of the molecule) constant: ASTTAPSVFPLAPSCGTTSGATVALACLVLGYFPEPVTVSWNSGALTSGVHTFPAVLQASGLYSLSSMVTVPSSRWLSDTFTCNVAHPPSNTKVDKTVRKTDHPPGPKPCDCPKCPPPEMLGGPSIFIFPPKPKDTLRISRTPEVTCLVVDLGPDDSDVQITWFVDNTQVYTAKTSPREEQFNSTYRVVSVLPILHQDWLKGKEFKCKVNSKSLPSPIERTISKAKGQPHEPQVYVLPPAQEELSRNKVSVTCLIKSFHPPDIAVEWEITGQPEPENNYRTTPPQLDSDGTYFVYSKLSVDRSHWQRGNTYTCSVSHEALHRHHTQKSLTQSPGK", "Kd / nM": 78.6}
{"binder": "feline IgG1a mutant ID No. 345: S252Y, S428M, S434F, E430I (antibody, part only; not given: Variable domains, not shown: another chain or arm of the molecule) constant: ASTTAPSVFPLAPSCGTTSGATVALACLVLGYFPEPVTVSWNSGALTSGVHTFPAVLQASGLYSLSSMVTVPSSRWLSDTFTCNVAHPPSNTKVDKTVRKTDHPPGPKPCDCPKCPPPEMLGGPSIFIFPPKPKDTLYISRTPEVTCLVVDLGPDDSDVQITWFVDNTQVYTAKTSPREEQFNSTYRVVSVLPILHQDWLKGKEFKCKVNSKSLPSPIERTISKAKGQPHEPQVYVLPPAQEELSRNKVSVTCLIKSFHPPDIAVEWEITGQPEPENNYRTTPPQLDSDGTYFVYSKLSVDRSHWQRGNTYTCSVMHIALHFHHTQKSLTQSPGK", "Kd / nM": 0.0227}
